tested_system: Left-right determination factor 2 (Homo sapiens)
assay_text: small molecules binding LEFTY2 protein – biochemical, small-molecule microarray, 635 nm fluorescence scan, primary screen (AID 1110)
experimental_parameters: higher = more signal
quantity_measured: composite z-score
Answers are plain numbers.

{"compound": "C=CCC(OC(C)=O)[C@@H]1[C@@H](N(Cc2cccc3ccccc23)C(=O)Cc2ccc(OC)cc2)c2cc(OCCCO)ccc2N1C(=O)c1ccc2ccccc2c1 (some centres not stated)", "composite z-score": 0.139}
{"compound": "CCOc1cc(C(O)C2C=CC3C(=O)N(c4ccccc4)C(=O)C3N2Nc2ccccc2F)ccc1O (configuration not stated)", "composite z-score": -0.325}
{"compound": "CCCCCCc1nc(-c2ccc(-c3ccc(Cl)c(Cl)c3)o2)cc2c1[Si](C(C)C)(C(C)C)OC2", "composite z-score": -0.924}
{"compound": "COC(=O)[C@@]1(Cc2ccc(F)cc2)[C@H]2c3cc(C(=O)N4CCCC4)n(Cc4ccccn4)c3C[C@H]2CN1C(=O)c1ccccc1", "composite z-score": -0.649}
{"compound": "O=C(NCc1ccccc1)[C@@H]1c2ccccc2C(=O)N(Cc2cc(C(F)(F)F)cc(C(F)(F)F)c2)[C@H]1c1ccc(CO)cc1", "composite z-score": 0.446}
{"compound": "CN1C(=O)C2C=CC(C(O)c3ccc(-c4ccccc4)s3)N(NC(=O)OC(C)(C)C)C2C1=O (configuration not stated)", "composite z-score": 0.285}

Next compound, please.
Item under review: COCCCNC(=O)[C@@H]1c2ccccc2C(=O)N(Cc2ccc(OC(F)(F)F)cc2)[C@H]1c1ccc(CO)cc1 . Reported composite z-score?
0.0983
